- test: qHTS assay for small molecule agonists of the antioxidant response element (ARE) signaling pathway - cell viability counter screen (AID 743203); note: nearly all actives have a fitted effect of over 55% in size
- test-parameters: ARE-bla HepG2 viability, CellTiter-Glo luminescence, 16 h; series mostly up to 73.3 µM
Inconclusive results are not listed. Calls of active or inactive are those of the source. Calls come from the whole dose curve.
Pick from Y (active), N (inactive) when you respond.

1) CCN(CC)CCN1C(=O)CN=C(c2ccccc2F)c2cc(Cl)ccc21 = N
2) C1=CCC=C1 = N
3) CC(C)(C)c1ccc(OP(=O)(Oc2ccccc2)Oc2ccccc2)cc1 = N
4) CCC(C)Br (centres undefined) = N
5) C=C(C)C(=O)[O][Sn]([CH2]CCC)([CH2]CCC)[CH2]CCC = Y
6) [Cl-].[Cl-].[Sn+2] = N
7) O=C(CCCCl)c1ccc(F)cc1 = N
8) C[C@]12Cc3cn[nH]c3C[C@@H]1CC[C@@H]1[C@@H]2CC[C@@]2(C)[C@H]1CC[C@]2(C)O = N

Q) Kindly provide the recorded test outcome for the following molecule: `O=[N+]([O-])c1ccc(Cl)c(Cl)c1Cl`
A) N

Q) Record lookup: outcome of this test for `N#Cc1ccc(N(CC(N)=O)CC(F)(F)F)cc1C(F)(F)F` ?
A) N

Q) So what was the verdict on CNC(=O)O/N=C(\C)C(C)S(C)(=O)=O (centres undefined) in this test?
A) N

Q) I'd appreciate the recorded outcome for CCNc1nc(NC(C)C(C)C)nc(SC)n1 (centres undefined) from this test.
A) N

Q) Dear colleague, could you share the recorded outcome for `O=S(=O)(NS(=O)(=O)C(F)(F)F)C(F)(F)F` when you have a moment?
A) N

Q) GET /call?item= `CCC[CH2][Sn]([CH2]CCC)([O]C(C)=O)[O]C(C)=O` returns the recorded outcome of this test.
A) Y

Q) Check the results log: what was the call for `CCC[CH2][Sn]([CH2]CCC)([CH2]CCC)[CH2]CCC` ?
A) Y

Q) Lab log entry: `ClCBr` — outcome as called in the assay?
A) N

Q) Would you mind telling me which call this test gave `c1ccc(N=NNc2ccccc2)cc1` ?
A) N

Q) Outcome logged for CC(Cl)CCl (centres undefined) in this assay:
A) N

Q) Short answer needed: outcome of this test for `CCCCc1ccccc1` ?
A) N

====

- test: qHTS assay to identify small molecule agonists of H2AX - cell viability counter screen (AID 1224847); note: nearly all actives have a fitted effect of over 30% in size
- test-parameters: CHO-K1 viability, CellTiter-Glo luminescence, 3 h; series mostly up to 154 µM
Results filed as inconclusive are left out. Activity calls are given as the source filed them. The call rests on the fitted dose curve.
Classes to choose from: yes = active, no = inactive

Below, 5 compounds whose answers are already recorded.
1. COP(=O)(OC)O/C(=C\Cl)c1cc(Cl)c(Cl)cc1Cl = no
2. CN1[C@@H]2CC[C@H]1CC(O)C2 (stereo not given in full) = no
3. Cc1cccc(Cc2cnc[nH]2)c1C = no
4. O=C(O)[C@H](O)[C@@H](O)C(=O)O = no
5. CCCCN(CCCC)C(=S)[S-].CCCCN(CCCC)C(=S)[S-].[Ni+2] = no

Q) So what was the verdict on `CCOP(=O)(OCC)Oc1cc(C)nc(C(C)C)n1` in this test?
A) no

Q) What call does the record list for O=S1(=O)OCC2C(CO1)C1(Cl)C(Cl)=C(Cl)C2(Cl)C1(Cl)Cl (stereo not given) ?
A) no

Q) Test call, this compound: `COc1ccc2[nH]cc(CCN(C(C)C)C(C)C)c2c1`
A) no

Q) I would be grateful if you could indicate the recorded call for `CC#C[C@]1(O)CC[C@H]2[C@@H]3C[C@H](C)C4=CC(=O)CC[C@]4(C)[C@H]3CC[C@@]21C` .
A) no

Q) Hi, do you know how `C#CCO` came out in this test?
A) no

Q) Per the assay record, what outcome was assigned to `CCN(CC)CCc1c[nH]c2ccccc12` ?
A) no

Q) Called result for `CN`
A) no

Q) Field: outcome | Entry: `CCCN`
A) no

Q) Query: recorded result category for `Oc1cc(Cl)cc(Cl)c1` in this test
A) yes

Q) Tell me the assay call for `C[C@H]1[C@H](c2ccc(Cl)cc2)SC(=O)N1C(=O)NC1CCCCC1` please.
A) no
